TARGET OF ASSAY: T1, Peptide 8: Biotin-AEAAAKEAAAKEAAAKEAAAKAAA-Tyr-acid (N-terminal biotin; C-terminal acid; no PC)
T1 construct: control peptide without PC
T1 peptide: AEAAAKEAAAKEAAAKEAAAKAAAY
TEST DESCRIPTION: scFv ELISA
ATTRIBUTE MEASURED: OD450 (OD450)
Entry rule: numbers only, all in OD450.

Examples with answers:
PcOxP_DB01_F11 (scFv, V domains shown, scFv in periplasmic extract) VH: EVQLLESGGGLVQPGGSLRLSCAASGFTFSSYYMEWVRQAPGKGLEWVAASRNKANDYTTEYADSVKGRFTISRDNSKNTLYLQMNSLRAEDTAVYYCARDYYGSSYWYYDVWGQGTLVTVSS VL: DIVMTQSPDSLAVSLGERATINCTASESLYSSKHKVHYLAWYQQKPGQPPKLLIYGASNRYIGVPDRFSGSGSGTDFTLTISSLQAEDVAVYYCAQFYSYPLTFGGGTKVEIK: 0.05
PcOxP_DB01_C07 (scFv, V domains shown, scFv in periplasmic extract) VH: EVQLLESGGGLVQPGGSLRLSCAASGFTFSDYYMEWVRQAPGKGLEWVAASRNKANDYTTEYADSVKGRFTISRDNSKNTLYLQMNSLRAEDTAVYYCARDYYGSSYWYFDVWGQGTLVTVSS VL: DIVMTQSPDSLAVSLGERATINCTASESLYSSKHKVHYLAWYQQKPGQPPKLLIYGASNRYDGVPDRFSGSGSGTDFTLTISSLQAEDVAVYYCAQFYSYPLTFGGGTKVEIK: 0.04
PcOxP_DB01_H03 (scFv, V domains shown, scFv in periplasmic extract) VH: EVQLLESGGGLVQPGGSLRLSCAASGFTFSDHYMEWVRQAPGKGLEWVAASRGKGNSYTTAYADSVKGRFTISRDNSKNTLYLQMNSLRAEDTAVYYCARDYYGSSYWYFDVWGQGTLVTVSS VL: DIVMTQSPDSLAVSLGERATINCTASESLYSSKHKVHYLAWYQQKPGQPPKLLIYGAGNRYIGVPDRFSGSGSGTDFTLTISSLQAEDVAVYYCAQFYHYPLTFGGGTKVEIK: 0.06

Ask: Which OD450 value is on record for PcOxP_DB02_E02 (scFv, V domains shown, scFv in periplasmic extract) VH: EVQLLESGGGLVQPGGSLRLSCAASGFTFSDEYMEWVRQAPGKGLEWVAASRNSGNSYTTAYADSVKGRFTISRDNSKNTLYLQMNSLRAEDTAVYYCARDYYGSSYWYFDVWGQGTLVTVSS VL: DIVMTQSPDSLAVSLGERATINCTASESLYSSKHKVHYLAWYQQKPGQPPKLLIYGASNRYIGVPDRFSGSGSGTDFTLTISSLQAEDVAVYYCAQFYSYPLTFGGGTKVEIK ?
Reply: 0.05

Ask: Which OD450 value is on record for PcOxP_DB04_B08 (scFv, V domains shown, scFv in periplasmic extract) VH: EVQLLESGGGLVQPGGSLRLSCAASGFTFSDDYMEWVRQAPGKGLEWVAASRNKANDYTTEYADSVKGRFTISRDNSKNTLYLQMNSLRAEDTAVYYCARDYYGSSYWYFDVWGQGTLVTVSS VL: DIQMTQSPSSLSASVGDRVTITCTASESLYSSKHKVHYLAWYQQKPGKAPKLLIYGLSNRYIGVPSRFSGSGSGTDFTLTISSLQPEDFATYYCAQFFSYPLTFGGGTKVEIK ?
Reply: 0.05
